The reported measurements were obtained from patent US7396846B2.

# System: pituitary cells
# RUN_DESCRIPTION: Pituitary Cell Culture Assay for Growth Hormone (GH) Secretion
# Type: cell-based
# APPLIED_CONDITIONS: stimulation of GH secretion, cultured rat anterior pituitary cells, 45 min at room temperature, rat GH radioimmunoassay
Counter-ions that a name gives are not always drawn.
EC50 for assorted compounds
Number in nM, nothing else.

{"COMPOUND": "CCN(CC1=C(c2ccc(Cl)cc2)S(=O)(=O)NC1(C)C)C(=O)[C@@H](COCc1cc(F)ccc1F)NC(=O)C(C)(C)N [Example 15, Hydrochloride]", "EC50 [nM]": 2.1}
{"COMPOUND": "CCN(CC1=C(c2ccc(Cl)cc2)S(=O)(=O)NC1(C)C)C(=O)[C@@H](COCc1ccc(F)cc1F)NC(=O)C(C)(C)N [Example 12, Hydrochloride]", "EC50 [nM]": 8}

As a next step, examine the compound that follows.
Qu. Look up EC50 of CCN(CC1=C(c2ccc(Cl)cc2)S(=O)(=O)NC1(C)C)C(=O)[C@@H](COCc1c(F)cccc1F)NC(=O)C(C)(C)N [Example 16, Hydrochloride] and report it.
Ans. 1.1
